- Tested on: Ba/F3 FLT3-ITD cells
- experiment description: Cytotoxicity assay (CellTiter-Glo), Ba/F3 FLT3-ITD
- Assay type: cell-based
- condition: ratio of Ba/F3 parental IC50 to Ba/F3 FLT3-ITD IC50
readout name: Ba/F3 FLT3-ITD Selectivity on parental generation
Numbers only.

Worked examples, 5 compounds total:
[2H]C([2H])([2H])C(n1cc(-c2ccc(CC(=O)Nc3cc(C(C)(C)C(F)(F)F)on3)cc2)c2c(N)ncnc21)C([2H])([2H])[2H] [Compound T-12]
1531.4
CC(C)c1nc(-c2ccc(CC(=O)Nc3cc(C(C)(C)C(F)(F)F)on3)cc2)c2c(N)nccn12 [Compound T-4]
7011.0
CC(C)n1nc(-c2ccc(NC(=O)Nc3cc(C(C)(C)C(F)(F)F)on3)cc2)c2c(N)ncnc21 [Compound T-2]
824.0
CC(C)n1nc(-c2ccc(CC(=O)Nc3cc(C(C)(C)C(F)(F)F)on3)cc2)c2c(N)ncnc21 [Compound T-1]
5227.1
CC(C)c1cc(-c2ccc(CC(=O)Nc3cc(C(C)(C)C(F)(F)F)on3)cc2)c2c(N)ncnn12 [Compound T-5]
2530.7

Record Ba/F3 FLT3-ITD Selectivity on parental generation per entry; entries follow.
1. CC(C)n1nc(-c2ccc(CC(=O)Nc3cc(C(C)(C)C(F)(F)F)on3)c(F)c2)c2c(N)ncnc21 [Compound T-6]
2. CC(C)n1nc(-c2ccc(NC(=O)Nc3cc(C(F)(F)F)ccc3F)cc2)c2c(N)ncnc21 [AD80, reference compound]

**Result**
1: 5238.7; 2: 1211.9

----------
- system: Ba/F3 KIF5B-RET^G810R cells (Homo sapiens, UniProt P07949, G810R, cells depend on it)
- Construct: Ba/F3 KIF5B-RET^G810R IC50 (nM); other: CellTiter-Glo, 72 hrs; fused on or other part: P33176 (Kinesin-1 heavy chain)
- Sequence (P07949 whole entry G810R, the tested form may be a part): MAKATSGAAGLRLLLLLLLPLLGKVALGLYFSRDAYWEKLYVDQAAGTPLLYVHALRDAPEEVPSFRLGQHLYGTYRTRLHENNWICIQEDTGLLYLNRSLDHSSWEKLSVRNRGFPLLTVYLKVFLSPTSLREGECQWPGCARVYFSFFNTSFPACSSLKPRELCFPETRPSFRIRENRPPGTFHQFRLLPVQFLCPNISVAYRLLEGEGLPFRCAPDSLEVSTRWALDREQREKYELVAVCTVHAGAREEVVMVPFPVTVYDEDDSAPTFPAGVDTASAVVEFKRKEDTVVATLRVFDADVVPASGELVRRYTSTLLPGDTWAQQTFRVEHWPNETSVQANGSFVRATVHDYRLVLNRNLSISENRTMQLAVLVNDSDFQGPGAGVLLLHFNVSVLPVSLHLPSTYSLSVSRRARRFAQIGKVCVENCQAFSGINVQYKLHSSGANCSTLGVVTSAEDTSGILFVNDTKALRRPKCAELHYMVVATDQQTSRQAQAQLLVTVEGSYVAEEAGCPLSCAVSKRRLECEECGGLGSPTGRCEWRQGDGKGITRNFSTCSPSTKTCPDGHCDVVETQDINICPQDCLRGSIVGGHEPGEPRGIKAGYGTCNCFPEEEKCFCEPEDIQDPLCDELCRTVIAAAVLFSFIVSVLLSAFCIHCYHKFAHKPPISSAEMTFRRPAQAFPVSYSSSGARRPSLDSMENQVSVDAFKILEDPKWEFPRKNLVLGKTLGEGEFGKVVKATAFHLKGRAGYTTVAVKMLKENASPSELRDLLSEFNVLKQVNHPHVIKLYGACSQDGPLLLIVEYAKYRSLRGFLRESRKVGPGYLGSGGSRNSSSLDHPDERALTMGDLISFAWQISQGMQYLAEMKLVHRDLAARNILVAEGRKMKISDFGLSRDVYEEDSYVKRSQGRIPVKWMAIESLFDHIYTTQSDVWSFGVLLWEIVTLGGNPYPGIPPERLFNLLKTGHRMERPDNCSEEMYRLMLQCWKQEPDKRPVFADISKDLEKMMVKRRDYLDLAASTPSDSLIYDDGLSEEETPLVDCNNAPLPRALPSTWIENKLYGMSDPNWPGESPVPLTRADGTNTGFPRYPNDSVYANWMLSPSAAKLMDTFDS
- experiment description: Cytotoxicity assay (CellTiter-Glo), Ba/F3 KIF5B-RET G810R
- Type: cell-based
- condition: CellTiter-Glo, 72 hrs; read-out: Ba/F3 KIF5B-RET^G810R IC50
Would you mind telling me the reported GI50 of each entry?
Answers are plain numbers, in nM.

CC(C)c1nc(-c2ccc(CC(=O)Nc3cc(C(C)(C)C(F)(F)F)on3)cc2)c2c(N)nccn12 [Compound T-4]
25.5
CC(C)n1nc(-c2ccc(CC(=O)Nc3cc(C(C)(C)C(F)(F)F)no3)cc2)c2c(N)ncnc21 [Compound T-8]
2.39

Batch request: GI50 for each of the following compounds.
1. CC(C)n1nc(-c2ccc(NC(=O)Nc3cc(C(F)(F)F)ccc3F)cc2)c2c(N)ncnc21 [AD80, reference compound]
2. CC(C)n1nc(-c2ccc(CC(=O)Nc3cc(C(C)(C)C(F)(F)F)on3)cn2)c2c(N)ncnc21 [Compound T-7]

**Result**
1. 7.88
2. 6.92

----------
Please provide measured log10 of GI50 for the entries that follow.
- system: Ba/F3 KIF5B-RET^V804L cells (Homo sapiens, UniProt P07949, V804L, cells depend on it)
- Construct: Ba/F3 KIF5B-RET^V804L IC50 (nM); other: CellTiter-Glo, 72 hrs; fused on or other part: P33176 (Kinesin-1 heavy chain)
- Sequence (P07949 whole entry V804L, the tested form may be a part): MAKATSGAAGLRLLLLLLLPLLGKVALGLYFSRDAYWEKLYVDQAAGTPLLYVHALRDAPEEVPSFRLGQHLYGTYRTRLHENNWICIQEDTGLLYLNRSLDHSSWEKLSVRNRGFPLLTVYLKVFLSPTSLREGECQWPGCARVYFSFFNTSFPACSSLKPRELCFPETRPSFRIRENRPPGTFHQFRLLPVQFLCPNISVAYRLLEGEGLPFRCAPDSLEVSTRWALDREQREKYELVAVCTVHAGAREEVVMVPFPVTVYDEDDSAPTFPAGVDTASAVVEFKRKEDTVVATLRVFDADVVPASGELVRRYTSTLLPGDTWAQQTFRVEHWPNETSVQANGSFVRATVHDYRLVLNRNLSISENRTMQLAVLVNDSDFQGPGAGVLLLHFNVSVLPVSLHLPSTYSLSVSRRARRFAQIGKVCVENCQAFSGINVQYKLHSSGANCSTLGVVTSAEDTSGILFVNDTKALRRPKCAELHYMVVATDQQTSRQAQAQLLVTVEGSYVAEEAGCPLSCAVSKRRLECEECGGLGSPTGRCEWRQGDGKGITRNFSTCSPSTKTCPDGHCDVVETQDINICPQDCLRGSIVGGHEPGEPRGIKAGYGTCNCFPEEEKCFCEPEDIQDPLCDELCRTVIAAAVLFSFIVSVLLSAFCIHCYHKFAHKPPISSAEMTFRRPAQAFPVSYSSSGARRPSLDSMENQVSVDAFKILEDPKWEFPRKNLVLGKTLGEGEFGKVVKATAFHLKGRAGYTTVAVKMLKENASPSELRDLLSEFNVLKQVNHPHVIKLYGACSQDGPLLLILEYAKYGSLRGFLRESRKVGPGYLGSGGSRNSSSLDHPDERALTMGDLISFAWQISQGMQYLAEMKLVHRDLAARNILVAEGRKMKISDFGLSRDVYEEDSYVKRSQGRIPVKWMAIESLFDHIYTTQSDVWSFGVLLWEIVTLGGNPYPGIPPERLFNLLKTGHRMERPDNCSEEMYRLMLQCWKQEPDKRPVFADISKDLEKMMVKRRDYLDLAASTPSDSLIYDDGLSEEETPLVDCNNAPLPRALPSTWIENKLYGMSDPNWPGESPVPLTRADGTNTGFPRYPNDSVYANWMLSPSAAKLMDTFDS
- experiment description: Cytotoxicity assay (CellTiter-Glo), Ba/F3 KIF5B-RET V804L
- Format: cell-based
- condition: CellTiter-Glo, 72 hrs; read-out: Ba/F3 KIF5B-RET^V804L IC50
- Protocol: Inhibitory effects of example compounds on the activity of Ba/F3 parental generation, Ba/F3 KIF5B-RET, Ba/F3 KIF5B-RET^V804M, Ba/F3 KIF5B-RET^V804L, Ba/F3 KIF5B-RET^G810R, Ba/F3 FLT3-ITD, Ba/F3 FLT3-ITD^D835Y, Ba/F3 FLT3-ITD^F691L cells were determined. […] 1. Cells in the logarithmic growth phase were harvested and counted with a […]. Cell viability was detected by a trypan blue exclusion method, ensuring that cell viability was 90% or more; 2. […] 1. […] Luminescence value was read. […]
Recorded GI50 (log10, nM)

Can you give me log10 of GI50 for all of these, one by one?
1. CC(C)n1nc(-c2ccc(CC(=O)Nc3cc(C(C)(C)C(F)(F)F)no3)cn2)c2c(N)ncnc21 [Compound T-9]
2. [2H]C([2H])([2H])C(n1cc(-c2ccc(CC(=O)Nc3cc(C(C)(C)C(F)(F)F)on3)cc2)c2c(N)ncnc21)C([2H])([2H])[2H] [Compound T-12]
3. CC(C)c1nc(-c2ccc(CC(=O)Nc3cc(C(C)(C)C(F)(F)F)on3)cc2)c2c(N)nccn12 [Compound T-4]
4. CC(C)n1nc(-c2ccc(CC(=O)Nc3cc(C(C)(C)C(F)(F)F)on3)cn2)c2c(N)ncnc21 [Compound T-7]
5. CC(C)n1nc(-c2ccc(CC(=O)Nc3cc(C(C)(C)C(F)(F)F)on3)cc2)c2c(N)ncnc21 [Compound T-1]
6. CC(C)n1nc(-c2ccc(NC(=O)Nc3cc(C(C)(C)C(F)(F)F)on3)cc2)c2c(N)ncnc21 [Compound T-2]
7. CC(C)c1nc(-c2ccc(CC(=O)Nc3cc(C(C)(C)C(F)(F)F)on3)cc2)c2c(N)ncnn12 [Compound T-10]
8. CC(C)n1nc(-c2ccc(CC(=O)Nc3cc(C(C)(C)C(F)(F)F)on3)c(F)c2)c2c(N)ncnc21 [Compound T-6]

**Result**
1. 1.69
2. 0.91
3. 1.50
4. 1.75
5. 0.57
6. 0.73
7. 1.26
8. 0.76

----------
- Test system: Ba/F3 KIF5B-RET cells
- experiment description: Cytotoxicity assay (CellTiter-Glo), Ba/F3 KIF5B-RET
- Type: cell-based
- condition: ratio of Ba/F3 parental IC50 to Ba/F3 KIF5B-RET IC50
In plain terms, low Ba/F3 KIF5B-RET Selectivity on parental generation, meaning strictly below 2000, gives True, and everything else gives False.

Look over these answered cases.
CC(C)c1nc(-c2ccc(CC(=O)Nc3cc(C(C)(C)C(F)(F)F)on3)cc2)c2c(N)nccn12 [Compound T-4]
True
CC(C)n1nc(-c2ccc(CC(=O)Nc3cc(C(C)(C)C(F)(F)F)no3)cc2)c2c(N)ncnc21 [Compound T-8]
False
CC(C)n1nc(-c2ccc(NC(=O)Nc3cc(C(F)(F)F)ccc3F)cc2)c2c(N)ncnc21 [AD80, reference compound]
True

Please examine the following record next.
**Query** Strictly below 2000: is that where Ba/F3 KIF5B-RET Selectivity on parental generation of CC(C)n1cc(-c2ccc(CC(=O)Nc3cc(C(C)(C)C(F)(F)F)on3)cc2)c2c(N)ncnc21 [Compound T-3] sits?
**Result** True

----------
Record form. Attribute: Ba/F3 KIF5B-RET^V804L Selectivity on parental generation. Fill in for each entry.
- System: Ba/F3 KIF5B-RET^V804L cells
- experiment description: Cytotoxicity assay (CellTiter-Glo), Ba/F3 KIF5B-RET V804L
- Type: cell-based
- condition: ratio of Ba/F3 parental IC50 to Ba/F3 KIF5B-RET^V804L IC50
Answers are plain numbers.

CC(C)n1nc(-c2ccc(CC(=O)Nc3cc(C(C)(C)C(F)(F)F)on3)c(F)c2)c2c(N)ncnc21
361.3
CC(C)n1nc(-c2ccc(CC(=O)Nc3cc(C(C)(C)C(F)(F)F)on3)cn2)c2c(N)ncnc21
5.9
CC(C)n1nc(-c2ccc(CC(=O)Nc3cc(C(C)(C)C(F)(F)F)no3)cc2)c2c(N)ncnc21
2403.3
[2H]C([2H])([2H])C(n1nc(-c2ccc(CC(=O)Nc3cc(C(C)(C)C(F)(F)F)no3)cc2)c2c(N)ncnc21)C([2H])([2H])[2H]
902.8
CC(C)n1nc(-c2ccc(NC(=O)Nc3cc(C(F)(F)F)ccc3F)cc2)c2c(N)ncnc21 [AD80, reference compound]
89.7
CC(C)c1nc(-c2ccc(CC(=O)Nc3cc(C(C)(C)C(F)(F)F)on3)cc2)c2c(N)nccn12
22.2
CC(C)n1cc(-c2ccc(CC(=O)Nc3cc(C(C)(C)C(F)(F)F)on3)cc2)c2c(N)ncnc21
199.6
CC(C)n1nc(-c2ccc(NC(=O)Nc3cc(C(C)(C)C(F)(F)F)on3)cc2)c2c(N)ncnc21
62.68
CC(C)c1cc(-c2ccc(CC(=O)Nc3cc(C(C)(C)C(F)(F)F)on3)cc2)c2c(N)ncnn12
242.8
CC(C)n1nc(-c2ccc(CC(=O)Nc3cc(C(C)(C)C(F)(F)F)on3)cc2)c2c(N)ncnc21
436.8

Hi team, please reply with Ba/F3 KIF5B-RET^V804L Selectivity on parental generation for each item in this list.
1. CC(C)c1nc(-c2ccc(CC(=O)Nc3cc(C(C)(C)C(F)(F)F)on3)cc2)c2c(N)ncnn12
2. [2H]C([2H])([2H])C(n1cc(-c2ccc(CC(=O)Nc3cc(C(C)(C)C(F)(F)F)on3)cc2)c2c(N)ncnc21)C([2H])([2H])[2H]

**Result**
[121.8, 132.2]

**Query** # return recorded Ba/F3 KIF5B-RET^V804L Selectivity on parental generation for entry `CC(C)n1nc(-c2ccc(CC(=O)Nc3cc(C(C)(C)C(F)(F)F)no3)cn2)c2c(N)ncnc21`
**Result** 83.5
